# system: hMC3-R (human) (UniProt P41968)
# Sequence (P41968 whole entry): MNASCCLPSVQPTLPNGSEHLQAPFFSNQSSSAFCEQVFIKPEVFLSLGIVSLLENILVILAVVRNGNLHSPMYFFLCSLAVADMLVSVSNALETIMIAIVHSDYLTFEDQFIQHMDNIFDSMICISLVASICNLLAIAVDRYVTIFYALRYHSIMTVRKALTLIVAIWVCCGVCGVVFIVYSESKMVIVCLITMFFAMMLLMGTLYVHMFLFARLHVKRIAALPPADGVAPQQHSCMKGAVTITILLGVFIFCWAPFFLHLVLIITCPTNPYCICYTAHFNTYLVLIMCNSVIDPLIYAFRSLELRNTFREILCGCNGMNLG
# assay_name: cell-based or functional assay
Bridge positions count the residues as written; N and C are the ends. Square brackets hold non-standard residues; d marks the D form. d2Nal = N[C@H](Cc1ccc2ccccc2c1)C(=O)O
Here, each record is paired with measured cAMP Kb data.

binder	cAMP Kb
CEHXRXACPPKDXYGRKKRRQRRR (N-terminal acetyl; X4=D-2-Nal; X6=1-Nal; X13=β-Ala; Cys1-Cys8 disulfide; C-terminal amide)	215
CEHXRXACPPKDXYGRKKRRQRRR (N-terminal acetyl; X4=D-2-Nal; X6=2-Nal; X13=β-Ala; Cys1-Cys8 disulfide; C-terminal amide)	25.6
Ac-CEH[d2Nal]RWACPPKD-NH2 (disulfide 1-8; SMILES CC(=O)N[C@H]1CSSC[C@@H](C(=O)N2CCC[C@H]2C(=O)N2CCC[C@H]2C(=O)N[C@@H](CCCCN)C(=O)N[C@@H](CC(=O)O)C(N)=O)NC(=O)[C@H](C)NC(=O)[C@H](Cc2c[nH]c3ccccc23)NC(=O)[C@H](CCCNC(=N)N)NC(=O)[C@@H](Cc2ccc3ccccc3c2)NC(=O)[C@H](Cc2c[nH]cn2)NC(=O)[C@H](CCC(=O)O)NC1=O) [Ac-c(Cys-Glu-His-D-2-Nal-Arg-Trp-Ala-Cys)-Pro-Pro-Lys-Asp-NH2]	33.4
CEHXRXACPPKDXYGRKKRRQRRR (N-terminal acetyl; X4=D-2-Nal; X6=Bal; X13=β-Ala; Cys1-Cys8 disulfide; C-terminal amide)	112
